- Tested system: Bromodomain-containing protein 2 (Homo sapiens, UniProt P25440)
- Sequence (P25440 whole entry, the tested form may be a part): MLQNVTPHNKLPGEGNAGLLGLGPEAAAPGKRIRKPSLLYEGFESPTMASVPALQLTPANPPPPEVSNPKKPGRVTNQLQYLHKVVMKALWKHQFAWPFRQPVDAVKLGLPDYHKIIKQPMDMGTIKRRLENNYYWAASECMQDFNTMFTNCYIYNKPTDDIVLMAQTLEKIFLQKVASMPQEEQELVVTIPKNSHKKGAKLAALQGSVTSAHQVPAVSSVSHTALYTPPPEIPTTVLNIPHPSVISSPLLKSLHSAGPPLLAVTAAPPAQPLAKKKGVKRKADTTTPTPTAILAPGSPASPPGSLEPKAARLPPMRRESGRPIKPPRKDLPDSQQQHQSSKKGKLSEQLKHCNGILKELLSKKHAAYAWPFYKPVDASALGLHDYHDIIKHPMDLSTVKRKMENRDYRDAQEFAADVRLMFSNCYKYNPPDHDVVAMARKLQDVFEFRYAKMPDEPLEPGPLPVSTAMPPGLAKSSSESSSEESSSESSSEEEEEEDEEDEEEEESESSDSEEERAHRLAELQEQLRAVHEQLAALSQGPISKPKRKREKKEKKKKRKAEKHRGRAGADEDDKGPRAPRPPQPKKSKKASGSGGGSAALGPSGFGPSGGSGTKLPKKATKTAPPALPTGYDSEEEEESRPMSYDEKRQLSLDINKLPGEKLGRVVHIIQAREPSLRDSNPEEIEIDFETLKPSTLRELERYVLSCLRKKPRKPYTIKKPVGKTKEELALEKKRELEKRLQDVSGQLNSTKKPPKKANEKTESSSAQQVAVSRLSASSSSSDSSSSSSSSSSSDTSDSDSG
- Method: Inhibition of recombinant human N-terminal GST-tagged BRD2 bromodomain-1 (65 to 187 residues) expressed in Escherichia coli expression system after 120 mins by TR-FRET assay
pIC50: −log10 of the molar value.

- Structure string: "Cc1cc(-c2nc3sc4c(c3c(=O)[nH]2)CCN(C)C4)cc(C)c1O"
  pIC50: 4.61

---

- Tested system: Bromodomain-containing protein 4 (Homo sapiens)
- Method: Inhibition of recombinant human BRD4 bromodomain-2 (342 to 460 residues) expressed in Escherichia coli expression system after 120 mins by TR-FRET assay
pIC50: −log10 of the molar value.
Result type: pIC50

- Structure string: "Cc1cc(-c2nc3sc4c(c3c(=O)[nH]2)CCN(C)C4)cc(C)c1O"
  Result type: "pIC50"
  Value: 6.03
